Hey, just so you know, these numbers are from patent US20260151494A1.

molecular target: T1, human apical domain of CD71 (human, UniProt P02786 189-383, limits assumed); test: primary ELISA; further: test concentration or dose not given here
T1 construct: domain: apical domain
T1 sequence (P02786 189-383 limits assumed): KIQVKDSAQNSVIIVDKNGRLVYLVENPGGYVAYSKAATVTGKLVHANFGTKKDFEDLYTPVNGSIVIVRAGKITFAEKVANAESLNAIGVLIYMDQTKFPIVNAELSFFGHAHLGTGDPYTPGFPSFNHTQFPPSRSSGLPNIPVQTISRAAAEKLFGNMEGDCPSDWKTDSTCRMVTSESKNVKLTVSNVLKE
Reported RLU values for a set of binders

- Binder: "CD71-binding FN3 domain SEQ ID NO 371 (designed binder) MLPAPKNLVVSRVTEDSARLSWTAPDAAFDSFDIDYVEFGWTGEAIALLVPGSERSYDLTGLKPGTEYWVWIGGVKGGDYSPPLNAYFTT"
  RLU, RLU: "4.4e+06"
- Binder: "CD71-binding FN3 domain SEQ ID NO 358 (designed binder) MLPAPKNLVVSRVTEDSARLSWTAPDAAFDSFEIGYWENAYKGEAIVLTVPGSERSYDLTGLKPGTEYVVFIGGVKGGVWSVPLSAIFTT"
  RLU, RLU: "5.02e+06"
- Binder: "CD71-binding FN3 domain SEQ ID NO 394 (designed binder) MLPAPKNLVVSRVTEDSARLSWTAPDAAFDSFFIGYLEPQPPGEAIYLLVPGSERSYDLTGLKPGTEYNVTIQGVKGGFPSTPLEASFTT"
  RLU, RLU: "5.66e+06"
- Binder: "CD71-binding FN3 domain SEQ ID NO 431 (designed binder) MLPAPKNLVVSRVTEDSARLSWTAPDAAFDSFFIGYLEPQPPGEAIVLFVPGSERSYDLTGLKPGTEYNVTIQGVKGGFPSNPLSAISTT"
  RLU, RLU: "4.35e+06"
